Assign Alamar Blue % Viability (50 μM Dose) to each entry below.
Test system: mtsABAD HEK293 cells
assay procedure: Alamar Blue cell viability assay
Assay type: cell-based, human
condition info: 50 μM compound
Protocol: Cell viability was assessed via fluorescence change using the commercially available Alamar Blue from ThermoFisher. HEK293 cells overexpressing mts17β-HSD10 were cultured in phenol-red free media (10% FBS, 1 mM sodium pyruvate, 100 units penicillin, 0.1 mg/mL streptomycin and 2 mM L-glutamine) and seeded at a density of 10,000 cells per well (100 μL, 96 well plates). […] Fluorescence was measured at 530 nm excitation and 590 nm emission using a SpectraMaxM2e spectrophotometer.
Please reply with the bare figure in % and do not write the unit itself.

# input compound: CC(C)OCCN(C(=O)c1ccccc1F)c1cccc(N(C)Cc2c[nH]cn2)c1 ; wanted: its Alamar Blue % Viability (50 μM Dose)
89.57

# input compound: CC(C)CN(C(=O)c1ccccc1)c1cccc(N(C)Cc2cnc[nH]2)c1 ; wanted: its Alamar Blue % Viability (50 μM Dose)
84.229

# input compound: CC(C)CN(C(=O)c1ccccc1F)c1cccc(N(C)Cc2nccn2C)c1 ; wanted: its Alamar Blue % Viability (50 μM Dose)
81.531

# input compound: Cc1ccsc1C(=O)N1CCC[C@H]1c1ccccc1-c1cccc(C(F)(F)F)c1 ; wanted: its Alamar Blue % Viability (50 μM Dose)
83.37

# input compound: CC(C)CN(C(=O)c1ccccc1F)c1cccc(N(C)Cc2cncn2C)c1 ; wanted: its Alamar Blue % Viability (50 μM Dose)
89.524

---

measurement target: 17β-HSD10 (Homo sapiens, UniProt Q99714)
Construct: Histev (histidine tag with TEV site) (N, cleaved yes)
Sequence (Q99714 1-261): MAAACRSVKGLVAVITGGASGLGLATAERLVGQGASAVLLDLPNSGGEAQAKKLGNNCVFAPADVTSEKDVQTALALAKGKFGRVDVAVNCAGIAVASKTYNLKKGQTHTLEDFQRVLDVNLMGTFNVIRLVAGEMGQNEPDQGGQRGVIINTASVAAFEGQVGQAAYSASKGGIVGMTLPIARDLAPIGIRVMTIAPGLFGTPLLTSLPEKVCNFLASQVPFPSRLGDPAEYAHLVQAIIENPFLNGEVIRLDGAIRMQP
assay procedure: 17β-HSD10 (ABAD) enzyme inhibition assay, NADH oxidation read at 340 nm (primary screen and dose response)
condition info: recombinant 17βHSD10 enzyme assay
Label 1 when EC50 is strictly below 1 µM; at or above that, label 0.

Hello, I'm reviewing records and need to know if EC50 of COc1ccc(-c2ccccc2[C@H]2CCCN2C(=O)c2ccccc2F)cn1 (stereo in doubt) is below 1 µM. Could you check?
0

Hello, I'm reviewing records and need to know if EC50 of CC(C)CN(C(=O)c1ccc(Cl)cc1)c1cccc(N(C)Cc2cnc[nH]2)c1 is below 1 µM. Could you check?
1

Hello, I'm reviewing records and need to know if EC50 of Cc1ncc(CN(C)c2cccc(N(CC(C)C)C(=O)c3ccccc3F)c2)[nH]1 [ESC1002204] is below 1 µM. Could you check?
1

Hello, I'm reviewing records and need to know if EC50 of O=C(c1ncc[nH]1)N1CCC[C@H]1c1ccccc1 is below 1 µM. Could you check?
0

Hello, I'm reviewing records and need to know if EC50 of CCOc1cccc(-c2ccccc2[C@@H]2CCCN2C(=O)c2sccc2Cl)c1 (racemic) is below 1 µM. Could you check?
1

Hello, I'm reviewing records and need to know if EC50 of Cc1ccccc1C(=O)N(CC(C)C)c1cccc(N(C)Cc2c[nH]cn2)c1 is below 1 µM. Could you check?
0

Hello, I'm reviewing records and need to know if EC50 of CN(Cc1cncn1C(=O)OC(C)(C)C)c1cccc(NC(=O)c2ccccc2F)c1 is below 1 µM. Could you check?
0

Hello, I'm reviewing records and need to know if EC50 of CC(C)CN(C(=O)c1ccccc1F)c1cccc(N(C)CCO)c1 is below 1 µM. Could you check?
0

Hello, I'm reviewing records and need to know if EC50 of O=C(c1ccon1)N1CCC[C@H]1c1ccccc1 is below 1 µM. Could you check?
0

Hello, I'm reviewing records and need to know if EC50 of COc1cc(OC)cc(-c2ccccc2[C@@H]2CCCN2C(=O)c2sccc2Cl)c1 (racemic) is below 1 µM. Could you check?
1

Hello, I'm reviewing records and need to know if EC50 of O=C(c1ccncc1)N1CCC[C@H]1c1ccccc1 is below 1 µM. Could you check?
0

Hello, I'm reviewing records and need to know if EC50 of CC(=O)N(CC(C)C)c1cccc(N(C)Cc2cnc[nH]2)c1 is below 1 µM. Could you check?
0

Hello, I'm reviewing records and need to know if EC50 of CC(C)CN(C(=O)c1ccncn1)c1cccc(N(C)Cc2c[nH]cn2)c1 is below 1 µM. Could you check?
0

Hello, I'm reviewing records and need to know if EC50 of CN(C)CCN(C(=O)c1ccccc1F)c1cccc(N(C)Cc2c[nH]cn2)c1 is below 1 µM. Could you check?
0

Hello, I'm reviewing records and need to know if EC50 of O=C(c1sccc1Cl)N1CCCC1c1ccccc1-c1cccc(O)c1 (racemic) is below 1 µM. Could you check?
1

Hello, I'm reviewing records and need to know if EC50 of COc1cccc(-c2ccccc2[C@@H]2CCCN2C(=O)C(C)C)c1 (racemic) is below 1 µM. Could you check?
0

Hello, I'm reviewing records and need to know if EC50 of CC(C)OCCN(C(=O)c1ccccc1F)c1cccc(N(C)Cc2c[nH]cn2)c1 is below 1 µM. Could you check?
0

---

measurement target: 17β-HSD10 (Homo sapiens, UniProt Q99714)
Construct: Histev (histidine tag with TEV site) (N, cleaved yes); made in house; host or cells: E. coli BL21-CodonPlus
Sequence (Q99714 1-261): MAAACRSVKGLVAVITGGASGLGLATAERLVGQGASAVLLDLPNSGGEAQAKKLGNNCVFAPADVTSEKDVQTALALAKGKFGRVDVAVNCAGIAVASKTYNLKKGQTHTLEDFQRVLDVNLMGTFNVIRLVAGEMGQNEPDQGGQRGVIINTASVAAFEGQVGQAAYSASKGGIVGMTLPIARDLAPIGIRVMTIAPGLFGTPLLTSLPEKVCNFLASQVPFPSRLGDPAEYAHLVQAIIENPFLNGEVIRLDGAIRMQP
assay procedure: 17β-HSD10 (ABAD) enzyme inhibition assay, NADH oxidation read at 340 nm (primary screen and dose response)
Type: biochemical
condition info: recombinant 17βHSD10 enzyme assay
endpoint name: Max. Effect (%)

# input compound: O=C(c1ncn[nH]1)N1CCC[C@H]1c1ccccc1 ; wanted: its Max. Effect (%)
7.1%

# input compound: COc1ccccc1-c1ccccc1[C@@H]1CCCN1C(=O)c1sccc1C ; wanted: its Max. Effect (%)
98%

# input compound: O=C(c1sccc1Cl)N1CCC[C@H]1c1ccccc1-c1cc(O)ccc1F (single isomer, unassigned) [ESC1002842] ; wanted: its Max. Effect (%)
102%

# input compound: Cc1ccsc1C(=O)N1CCC[C@H]1c1ccccc1-c1ccc(S(C)(=O)=O)cc1 ; wanted: its Max. Effect (%)
79%

# input compound: CC(C)CN(C(=O)c1ccccc1F)c1cccc(N(C)Cc2cncn2C)c1 ; wanted: its Max. Effect (%)
13%

# input compound: COc1cccc(-c2ccccc2[C@@H]2CCCN2C(=O)c2nc[nH]n2)c1 (racemic) ; wanted: its Max. Effect (%)
10%

# input compound: CC(C)CN(C(=O)c1ccc(Cl)cc1F)c1cccc(N(C)Cc2cnc[nH]2)c1 ; wanted: its Max. Effect (%)
98%

# input compound: O=C(c1sccc1Cl)N1CCC[C@H]1c1ccccc1-c1cccc(O)c1F (single isomer, unassigned) [ESC1002841] ; wanted: its Max. Effect (%)
27%

# input compound: CC(C)CN(C(=O)c1ccccc1F)c1cccc(N(C)Cc2ccn[nH]2)c1 [ESC1002205] ; wanted: its Max. Effect (%)
96%

# input compound: CC(=O)N(CC(C)C)c1cccc(N(C)Cc2cnc[nH]2)c1 ; wanted: its Max. Effect (%)
34%

# input compound: Cc1cc(CN(C(=O)c2ccccc2F)c2cccc(N(C)Cc3c[nH]cn3)c2)no1 ; wanted: its Max. Effect (%)
46%

# input compound: CC(C)CN(C(=O)C(C)C)c1cccc(N(C)Cc2cnc[nH]2)c1 ; wanted: its Max. Effect (%)
94%

# input compound: CC(C)CN(C(=O)c1ccccc1F)c1cccc(N(C)Cc2cn[nH]c2I)c1 ; wanted: its Max. Effect (%)
64%

# input compound: Cc1ccsc1C(=O)N1CCC[C@H]1c1ccccc1-c1cccc(Cl)c1 (single isomer, unassigned) [ESC1002768] ; wanted: its Max. Effect (%)
12%

# input compound: Cc1ccsc1C(=O)N1CCC[C@@H]1c1ccccc1-c1cn[nH]c1 ; wanted: its Max. Effect (%)
93%

# input compound: CCc1ccc(C(=O)N(CC(C)C)c2cccc(N(C)Cc3c[nH]cn3)c2)cc1 ; wanted: its Max. Effect (%)
93%

# input compound: CC(C)CN(C(=O)c1ccccc1F)c1cccc(N(C)Cc2nc[nH]n2)c1 ; wanted: its Max. Effect (%)
86%

# input compound: Cc1ccsc1C(=O)N1CCC[C@@H]1c1ccccc1-c1ccccc1 ; wanted: its Max. Effect (%)
99%

# input compound: CCCn1c(C(N)=O)cc2cc(-c3cn[nH]c3)ccc21 ; wanted: its Max. Effect (%)
85%

# input compound: CC(C)CN(C(=O)c1ccccc1F)c1cccc(N(C)Cc2c[nH]c(C3CC3)n2)c1 ; wanted: its Max. Effect (%)
59%

# input compound: COc1ccc(-c2ccccc2[C@H]2CCCN2C(=O)c2sccc2C)cn1 (single isomer, unassigned) ; wanted: its Max. Effect (%)
98%

# input compound: Cc1ccsc1C(=O)N1CCC[C@@H]1c1ccccc1-c1ccc(F)cc1 ; wanted: its Max. Effect (%)
96%

# input compound: COc1cc(-c2ccccc2[C@@H]2CCCN2C(=O)c2sccc2Cl)ccn1 (racemic) ; wanted: its Max. Effect (%)
95%

# input compound: COc1ccc(-c2ccccc2[C@H]2CCCN2C(=O)c2ccccc2F)cn1 (stereo in doubt) ; wanted: its Max. Effect (%)
64%

# input compound: O=C(c1sccc1Cl)N1CCC[C@H]1c1ccccc1-c1cccc(O)c1 (single isomer, unassigned) [ESC1002755] ; wanted: its Max. Effect (%)
95%

# input compound: Cc1ncc(CN(C)c2cccc(N(CC(C)C)C(=O)c3ccccc3F)c2)[nH]1 [ESC1002203] ; wanted: its Max. Effect (%)
97%

# input compound: CC(C)CN(C(=O)c1ccccc1F)c1cccc(N(C)Cc2ccncc2)c1 ; wanted: its Max. Effect (%)
40%

# input compound: Cc1ccsc1C(=O)N1CCC[C@H]1c1ccccc1-c1cccc(Cl)c1 (single isomer, unassigned) [ESC1002769] ; wanted: its Max. Effect (%)
94%

# input compound: CN(Cc1c[nH]cn1)c1cccc(N(CC(C)(C)C)C(=O)c2ccccc2F)c1 ; wanted: its Max. Effect (%)
92%

# input compound: O=C(c1sccc1Cl)N1CCC[C@H]1c1ccccc1-c1cc(O)cc(F)c1 (single isomer, unassigned) [ESC1002800] ; wanted: its Max. Effect (%)
10%

# input compound: O=C(c1sccc1Cl)N1CCC[C@H]1c1ccccc1-c1cc(O)cc(F)c1 (racemic) [ESC1002776] ; wanted: its Max. Effect (%)
99%

# input compound: O=C(c1nc(Br)no1)N1CCC[C@H]1c1ccccc1 ; wanted: its Max. Effect (%)
20.5%

# input compound: CC(C)CN(C(=O)c1ccccc1F)c1cccc(N(C)CCO)c1 ; wanted: its Max. Effect (%)
72%
